Each record here notes measured Percent Effect.
# Test system: Wolbachia pipientis
# Assay method text: Anti-Wolbachia Cell-Based Screen
# Format: functional
# Set-up: scale not given: in the data most compounds retested in dose-response had high values
# Condition set: 5 µM
Screen size: about 48,000 compounds; about 13,000 (27%) showed an effect of 50% or more. Some of the results follow.
Endpoint: Percent Effect (%)

{"Compound": "COCCn1cc(NC(=O)NC(C)CCc2ccccc2)ccc1=O (stereo unspecified)", "U": "%", "Value reported": -2.537}
{"Compound": "O=C(CC1CC1)N1CCO[C@H]2[C@H](OCCCn3cccn3)CC[C@@H]21.O=C(O)C(F)(F)F", "U": "%", "Value reported": 104.8}
{"Compound": "Cc1cccc(C(=O)NCc2ccccc2)n1", "U": "%", "Value reported": 112.9}
{"Compound": "COCCn1cc(NC(=O)C(C)CCc2ccccc2F)ccc1=O (stereo unspecified)", "U": "%", "Value reported": -6.604}
{"Compound": "COCCn1cnc2ccc(NC(=O)c3ccc(OC)cc3)cc2c1=O", "U": "%", "Value reported": 162.9}
{"Compound": "O=C(C1CCC1)N1CCO[C@H]2[C@H](OCCCn3cccn3)CC[C@@H]21.O=C(O)C(F)(F)F", "U": "%", "Value reported": 102.2}
{"Compound": "CS(=O)(=O)N(Cc1ccon1)c1ccc(F)cc1", "U": "%", "Value reported": -1.74}
{"Compound": "CNS(=O)(=O)c1ccc(CNC(=O)c2cccc(C)n2)cc1", "U": "%", "Value reported": 84.72}
{"Compound": "Cn1cccc1C(=O)N1CCO[C@H]2[C@H](OCc3cccnc3)CC[C@@H]21.O=C(O)C(F)(F)F", "U": "%", "Value reported": -1.301}
{"Compound": "CC(=O)N1CCO[C@H]2[C@H](OCCCn3cccn3)CC[C@@H]21.O=C(O)C(F)(F)F", "U": "%", "Value reported": 121.4}
{"Compound": "CNS(=O)(=O)c1ccc(CNC(=O)NCc2cc[nH]n2)cc1", "U": "%", "Value reported": -14.1}
{"Compound": "Cc1ccc(CN2CCC3(CC2)C(=O)N(CC(C)C)CCN3C)s1.O=C(O)C(F)(F)F.O=C(O)C(F)(F)F", "U": "%", "Value reported": 102.6}
{"Compound": "CCN(CC)c1ccc(CNC(=O)c2cccc(C)n2)cn1", "U": "%", "Value reported": 13.97}
{"Compound": "Cn1cc(NC(=O)c2ccccn2)cc(Br)c1=O", "U": "%", "Value reported": 3.766}
{"Compound": "COCCn1cnc2ccc(NC(=O)c3ccccn3)cc2c1=O", "U": "%", "Value reported": 106.6}
{"Compound": "CCS(=O)(=O)N1CCO[C@H]2[C@H](OCCCn3cccn3)CC[C@@H]21.O=C(O)C(F)(F)F", "U": "%", "Value reported": 3.946}

====

# Tested on: Wolbachia pipientis
# Assay method text: Anti-Wolbachia Cell-Based Screen
# Format: functional
# Parameters: scale not given: in the data most compounds retested in dose-response had high values
# Condition set: 5 µM
Among all 48,000 compounds or so, about 13,000 (27%) showed an effect of 50% or more. Some of the results follow.
In this section, each of the compounds is paired with its reported Percent Effect.

{"Compound": "COCC(=O)N1CCC(c2nc3ccc(N4CCCC4)cn3n2)CC1.O=C(O)C(F)(F)F", "Percent Effect (%)": -11.72}
{"Compound": "CN(C)S(=O)(=O)N1CCC(c2cccc(Cc3ccccc3Cl)n2)CC1", "Percent Effect (%)": 111.4}
{"Compound": "CN(C)C(=O)N1CCC2(CCCN(c3ncccn3)C2)C1.O=C(O)C(F)(F)F (configuration not stated)", "Percent Effect (%)": 113.7}
{"Compound": "CN(C)S(=O)(=O)N1CCCC(c2cccc(Cc3ccccc3F)n2)C1 (configuration not stated)", "Percent Effect (%)": 93.31}
{"Compound": "CN(C)S(=O)(=O)N1CCCC(c2cccc(Cc3ccc(Cl)cc3)n2)C1 (configuration not stated)", "Percent Effect (%)": 74.08}
{"Compound": "CCc1nc(C)c(C(=O)NCCN2CCCC2)s1", "Percent Effect (%)": 119.2}
{"Compound": "CCc1nc(C)c(CNC(=O)CCCN2CCCCC2)s1", "Percent Effect (%)": -7.179}
{"Compound": "CN(C)C(=O)N1CCn2cc(CNC(=O)CC3CC3)nc2C1", "Percent Effect (%)": -12.44}
{"Compound": "CN(C)C(=O)N1CCOCC2(CCN(c3ncccn3)C2)C1.O=C(O)C(F)(F)F (configuration not stated)", "Percent Effect (%)": -1.009}
{"Compound": "Cc1ccc(CN2CC[C@H]3OCC[C@@H](C(=O)NCC4CC4)[C@@H]3C2)s1.O=C(O)C(F)(F)F", "Percent Effect (%)": -8.513}
{"Compound": "CCCc1nc(C)c(C(=O)NCCN2CCCCC2)s1", "Percent Effect (%)": 125.3}
{"Compound": "NC(=O)N1CCc2ncc(CNC(=O)CC3CC3)n2CC1", "Percent Effect (%)": 111.4}
{"Compound": "COCCN1CCC(c2nc3ccc(N4CCCC4)cn3n2)CC1.O=C(O)C(F)(F)F", "Percent Effect (%)": -8.298}
{"Compound": "CC(C)Nc1ccc2nc(C3CCN(C(C)C)CC3)nn2c1.O=C(O)C(F)(F)F", "Percent Effect (%)": 7.625}
{"Compound": "O=C(NCC1CCOC1)Nc1ccc(OCC(F)(F)F)nc1 (configuration not stated)", "Percent Effect (%)": -13.99}
{"Compound": "CSCC(C)N(C)S(=O)(=O)c1ccc(Cl)cc1C#N (configuration not stated)", "Percent Effect (%)": -5.71}
{"Compound": "CCCc1nc(C)c(C(=O)NC2CCN(c3ncccn3)CC2)s1", "Percent Effect (%)": -4.746}

====

Parameter: Percent Effect. Scope: all listed entries.
# Test system: Wolbachia pipientis
# Assay method text: Anti-Wolbachia Cell-Based Screen
# Type: functional
# Design: scale not given: in the data most compounds retested in dose-response had high values
# Condition set: 5 µM
In all, about 48,000 compounds went through this assay and about 13,000 (27%) showed an effect of 50% or more. The list shows a part of the results.

{"Compound": "CCC(Nc1nc(C(F)(F)F)nc2ccccc12)C(=O)O (stereo unspecified)", "U": "%", "Percent Effect": 14.92}
{"Compound": "CCN(CC)C(=O)c1nnc2ccc(N3CCOCC3)cc2n1", "U": "%", "Percent Effect": -10.33}
{"Compound": "Cc1cc(CNC(=O)NC(C)c2ccccc2)no1 (stereo unspecified)", "U": "%", "Percent Effect": -4.939}
{"Compound": "O=C(O)C(F)(F)F.O=C(c1c[nH]cn1)N1CCC(F)(F)C2(CCN(c3ncccn3)C2)C1 (stereo unspecified)", "U": "%", "Percent Effect": 7.042}
{"Compound": "CCn1cc(S(=O)(=O)NC2CCCN(CCCc3ccccc3)C2)cn1 (stereo unspecified)", "U": "%", "Percent Effect": -6.071}
{"Compound": "CN1CCC(Oc2ccc(NC(=O)c3cccc(Cl)c3)cc2)CC1", "U": "%", "Percent Effect": -9.86}
{"Compound": "COc1cc(NC(=O)c2ccccc2F)c(C(=O)N(C)C)cc1OC", "U": "%", "Percent Effect": -7.835}
{"Compound": "Cn1cccc1C(=O)N1CCC2(CCN2c2ncccn2)C1.O=C(O)C(F)(F)F (stereo unspecified)", "U": "%", "Percent Effect": 93.48}
{"Compound": "Cc1ccc(Cl)cc1S(=O)(=O)NCc1cnc(N(C)C)n1C", "U": "%", "Percent Effect": -1.472}
{"Compound": "CN(CCCNC(=O)c1ccccc1F)CC(F)(F)F", "U": "%", "Percent Effect": 0.1047}
{"Compound": "CCc1nnc(CN(C)c2nc(C(C)C)nc3c2cnn3C)o1", "U": "%", "Percent Effect": -14.59}
{"Compound": "CCN1CCCC12CCN(C(=O)c1nccn1C)CC2.O=C(O)C(F)(F)F", "U": "%", "Percent Effect": -7.491}
{"Compound": "Cn1ccc(C(=O)N2CCC3(CCN3c3ncccn3)C2)n1.O=C(O)C(F)(F)F (stereo unspecified)", "U": "%", "Percent Effect": 111.1}
{"Compound": "O=C(C1CCS(=O)(=O)CC1)N1CCC(c2ccc(F)cc2)C1 (stereo unspecified)", "U": "%", "Percent Effect": -11.81}
{"Compound": "O=C(NCCSCc1cccs1)C1CCCN(C(=O)N2CCCC2)C1 (stereo unspecified)", "U": "%", "Percent Effect": -5.994}
{"Compound": "CC(NC(=O)NCc1cccnc1N(C)C)c1ccc(F)cc1 (stereo unspecified)", "U": "%", "Percent Effect": 97.94}
{"Compound": "Cc1noc(CCCC(=O)Nc2ncccc2Br)n1", "U": "%", "Percent Effect": -19.61}
{"Compound": "O=C1NC2(Nc3ncccc31)C(=O)Nc1c2ccc(Cl)c1F (stereo unspecified)", "U": "%", "Percent Effect": -11.72}
{"Compound": "CN(C)CCNC(=O)c1cnc2c(c1)nc(-c1ccccc1Cl)n2C", "U": "%", "Percent Effect": -9.554}
{"Compound": "CN(Cc1ncnn1C)C(=O)Nc1ccc(OC(F)F)cc1", "U": "%", "Percent Effect": -14.3}
{"Compound": "CN(C)CCCNC(=O)c1ccnc(OCc2ccccc2)c1", "U": "%", "Percent Effect": -11.72}
{"Compound": "Cc1c[nH]c(CN2CC[C@@]3(O)CCN(C(=O)C4CCCC4)C[C@H]3C2)n1", "U": "%", "Percent Effect": 6.79}
{"Compound": "CN(CC(=O)Nc1ccccc1C(=O)NC1CC1)Cc1ccccc1Cl", "U": "%", "Percent Effect": 6.232}
{"Compound": "Cc1c[nH]nc1C1CCN(C(=O)C2CCOCC2)C1 (stereo unspecified)", "U": "%", "Percent Effect": 146.2}
{"Compound": "CCc1nc(CN2CCCN(C(=O)CC3CCCC3)CC2)cs1", "U": "%", "Percent Effect": -10.08}
{"Compound": "CCc1ccc(CN2CCCC(c3nn(C)c(=O)n3CC)C2)nc1 (stereo unspecified)", "U": "%", "Percent Effect": 20.88}
{"Compound": "Cc1ccnc(NC(=O)CCNC(=O)c2ccccc2Cl)c1", "U": "%", "Percent Effect": 8.062}
{"Compound": "O=C(C1CCC1)N1CCC(C(=O)N2CCC(c3ccc(F)cc3)C2)CC1 (stereo unspecified)", "U": "%", "Percent Effect": 15.47}
{"Compound": "CN(C)c1ncccc1CNC(=O)NCc1cccs1", "U": "%", "Percent Effect": 101}
{"Compound": "Cc1cc(N[C@H]2CCCN(Cc3ccccc3)C2)n2nc(C)cc2n1", "U": "%", "Percent Effect": -7.34}
{"Compound": "CN(C)CCNC(=O)c1ccccc1NC(=O)c1cc(Cl)ccc1Cl", "U": "%", "Percent Effect": 115.7}
{"Compound": "CN(C)CCCNC(=O)c1ccccc1NC(=O)c1ccccc1Cl", "U": "%", "Percent Effect": 105.1}
{"Compound": "Cc1cc(C)nc(NC2CCCN(CCCc3ccccc3)C2)n1 (stereo unspecified)", "U": "%", "Percent Effect": 120.4}
{"Compound": "CN(C)C[C@H]1OC[C@@H]2CN(C(=O)NCc3cccc(F)c3)CC[C@@H]21.O=C(O)C(F)(F)F", "U": "%", "Percent Effect": -10.24}
{"Compound": "Cc1cc(CNC(=O)NCc2cccs2)no1", "U": "%", "Percent Effect": 116.2}
{"Compound": "Cc1c[nH]nc1C1CCN(C(=O)CC2CCCC2)C1 (stereo unspecified)", "U": "%", "Percent Effect": 140.5}
